Target: HLA-A*02:03
Test: IEDB peptide-MHC binding, purified MHC/competitive/radioactivity; bounds were set here for any values at or beyond the usual limits of such assays
Details: source organism: Hepacivirus hominis
What IC50 was measured for each of the following?
Answers are plain numbers, in nM.

residues: LLLSTTEWQV
target desc: HLA-A*02:03
IC50, nM: 101
//
residues: LLYFILFFV
target desc: HLA-A*02:03
IC50, nM: 323
//
residues: VLAGGVLAAV
target desc: HLA-A*02:03
IC50, nM: 6.7
//
residues: MLCLLLLSV
target desc: HLA-A*02:03
IC50, nM: 263

List reported IC50 for each of these sequences:
1. LLSTTEWQV
2. VLWTVFHGA

1. 95
2. 836

List reported IC50 for each of these sequences:
1. KLFPRLPGI
2. SMMSFSAAL

[0.5, 15]

List reported IC50 for each of these sequences:
1. KIMSGEKPSV
2. LLMALPHQA
3. MLLAYLVRI

1. 1390
2. 10
3. 12

List reported IC50 for each of these sequences:
1. RLWHYPCTV
2. QMWKCLIRL

1. 17
2. 317

---

What IC50 was measured for each of the following?
Biological target: HLA-A*68:02
Experiment: IEDB peptide-MHC binding, cellular MHC/competitive/fluorescence; bounds were set here for any values at or beyond the usual limits of such assays
Settings: source organism: Vaccinia virus WR
Just the number plus its unit, please.

List reported IC50 for each of these sequences:
1. ILSLETVKM
2. WLKDSAIMVA
3. QLVFNSISA
4. TQSGALEVLM
5. NVKSKLLWFL

9.7 µM
10.1 µM
8.22 µM
12.3 µM
7.3 µM

---

Molecular target: HLA-A*02:01
Assay: IEDB peptide-MHC binding, purified MHC/competitive/radioactivity; bounds were set here for any values at or beyond the usual limits of such assays
Conditions: source organism: Vaccinia virus WR
What pIC50 was measured for each of the following?
Give bare numbers, as −log10 of the molar value.

In the examples that follow, each entry is paired with its recorded pIC50.
residues: ILDNLRCHSA
pIC50: 7.20
--
residues: FTILEYLYI
pIC50: 7.17

List reported pIC50 for each of these sequences:
1. YLCTFMIIT
2. NIWAIIPLSA

[7.06, 7.06]

---

Molecular target: HLA-A*02:01
Experiment: IEDB peptide-MHC binding, purified MHC/competitive/radioactivity; bounds were set here for any values at or beyond the usual limits of such assays
Conditions: source organism: Vaccinia virus WR
Could you please mark 1 (yes) for values of IC50 below 0.3 µM and 0 (no) for values at or above it?

residues: FACLMFKHLL
target desc: HLA-A*02:01
category: 0 (no)

residues: LTFNFTPKI
target desc: HLA-A*02:01
category: 1 (yes)

residues: ILSLFLISLV
target desc: HLA-A*02:01
category: 1 (yes)

residues: MAEFEDQLV
target desc: HLA-A*02:01
category: 0 (no)

residues: FVILYLLAV
target desc: HLA-A*02:01
category: 1 (yes)

Below 0.3 µM on IC50? Entry TIAVSVYGA
1 (yes)

Below 0.3 µM on IC50? Entry KLDYWSFQL
1 (yes)

---

Target: HLA-A*02:01
Experiment: IEDB peptide-MHC binding, purified MHC/competitive/radioactivity; bounds were set here for any values at or beyond the usual limits of such assays
Details: source organism: Vaccinia virus WR
What log10 IC50 was measured for each of the following?
Please be aware that the numbers have been log10-transformed from IC50 in nM.

List reported log10 IC50 for each of these sequences:
1. TIAGGVCYYL
2. CLCSFHNDAI
3. FIKPPLITL
4. QTCAGVIEYA
5. SIDQKKSYV
6. STYWVIPWEL

1: -0.62; 2: 3.46; 3: 2.57; 4: 2.56; 5: 2.27; 6: 1.88

List reported log10 IC50 for each of these sequences:
1. RLYNSLKRFT
2. SLLRKFLYCI
3. RVSENTGMGM

2.94
2.53
2.88

---

Target: HLA-A*02:01
Assay: IEDB peptide-MHC binding, cellular MHC/competitive/fluorescence; bounds were set here for any values at or beyond the usual limits of such assays
Conditions: source organism: Vaccinia virus WR
measure: pIC50
Give bare numbers, as −log10 of the molar value.

residues: YAGTIKESL
pIC50: 4.68

residues: DVGCLLTDTI
pIC50: 5.17

residues: TAIRAGYSI
pIC50: 4.58

List reported pIC50 for each of these sequences:
1. KQQKKCKYCI
2. DTIESAKTKI
3. KIDKLRQIVA

[4.25, 4.23, 4.49]

---

Target: HLA-A*02:06
Assay: IEDB peptide-MHC binding, cellular MHC/competitive/fluorescence; bounds were set here for any values at or beyond the usual limits of such assays
Conditions: source organism: Vaccinia virus WR
What pIC50 was measured for each of the following?
One number for each entry, as −log10 of the molar value.

In the examples that follow, each entry is paired with its recorded pIC50.
residues: GVEVRYIDI
value observed: 4.99

residues: YTGGYDVSL
value observed: 4.69

residues: PLPCQLMYAL
value observed: 5.01

Pending sequence:
Assay HLA-A*02:06, sample HMYRGGNGNT , pIC50 read: 5.01

---

Target: HLA-A*02:01
Test: IEDB peptide-MHC binding, purified MHC/competitive/radioactivity; bounds were set here for any values at or beyond the usual limits of such assays
Details: source organism: Hepacivirus hominis
What pIC50 was measured for each of the following?
Numbers only, as −log10 of the molar value.

In the examples that follow, each entry is paired with its recorded pIC50.
residues: LLMALPHQA
value observed: 7.14
//
residues: ALDCQIYGA
value observed: 6.84
//
residues: LLYFILFFV
value observed: 6.79
//
residues: ALLSCLTTPA
value observed: 6.79
//
residues: LIQDWIPPL
value observed: 7.01

List reported pIC50 for each of these sequences:
1. FLLALLSCLT
2. FLLALLSCI

1. 7.04
2. 8.62

---

Molecular target: HLA-A*68:02
Assay: IEDB peptide-MHC binding, purified MHC/competitive/radioactivity; bounds were set here for any values at or beyond the usual limits of such assays
Settings: source organism: Vaccinia virus WR
Classification field. Basis: IC50. Definitions: zone 1 (below 600 nM), zone 2 (600 nM to below 2000 nM), zone 3 (2000 nM or more)

Here's what some known entries look like.
residues: FVNFNSVKNL
category: zone 1

residues: LALKNSQAEL
category: zone 3

residues: DVNSVQFSIL
category: zone 3

residues: ALINLVQYRI
category: zone 2

residues: PTSETMYLT
category: zone 3

residues: VIKLVKSLV
category: zone 2

Hello team, could you let me know which band the following sequence falls into: DINVIGLIV
zone 3

Hello team, could you let me know which band the following sequence falls into: ELWARISSSL
zone 1

Hello team, could you let me know which band the following sequence falls into: DVSVSVGTGI
zone 1

Hello team, could you let me know which band the following sequence falls into: TLLGLILFVL
zone 2

Hello team, could you let me know which band the following sequence falls into: NVQSLIKFI
zone 2

---

Target: HLA-A*02:06
Assay: IEDB peptide-MHC binding, purified MHC/competitive/radioactivity; bounds were set here for any values at or beyond the usual limits of such assays
Settings: source organism: Vaccinia virus WR
Could you please mark Met for values of IC50 below 1000 nM and Not met for values at or above it?

Below 1000 nM on IC50? Entry ILYYGANGST
Not met

Below 1000 nM on IC50? Entry GTSVIRSNI
Not met

Below 1000 nM on IC50? Entry TQSGALEVLM
Not met

Below 1000 nM on IC50? Entry GVLIAGIIL
Met

Below 1000 nM on IC50? Entry ILKDPRIASI
Not met

Below 1000 nM on IC50? Entry ITPTIEDDKI
Not met

Below 1000 nM on IC50? Entry ALVSDCASTI
Met

Below 1000 nM on IC50? Entry ALKAYFTAKI
Not met

Below 1000 nM on IC50? Entry PASISSVLT
Not met

Below 1000 nM on IC50? Entry LMIGNYFSGV
Met

Below 1000 nM on IC50? Entry LTSVDIETA
Met

Below 1000 nM on IC50? Entry DVERLQMAGV
Met

Below 1000 nM on IC50? Entry IISYIILFIL
Not met

---

Molecular target: HLA-A*02:01
Assay: IEDB peptide-MHC binding, cellular MHC/competitive/fluorescence; bounds were set here for any values at or beyond the usual limits of such assays
Details: source organism: Vaccinia virus WR
What IC50 was measured for each of the following?

residues: ETSFNDKQKV
IC50: ≥ 70 µM

residues: FTSYKRFVT
IC50: ≥ 70 µM

residues: DTEFINKFL
IC50: ≥ 70 µM

Pending sequence:
Documented IC50 of PTDMLKLFT : ≥ 70 µM
